The origin of these recorded values is PubChem BioAssay AID1159580.

ASSAY COMMENT: chemical genetic growth profiling, strain panel (AID 1159580);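 further: tested at 20 µM; growth read once vehicle control cultures reached saturation at 30 °C; 1 = growth at the plate median or of vehicle wells; lower values mean less growth of the strain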
TEST CONDITIONS: S. cerevisiae deletion strains, growth OD, locus YCR088W, strain abp1, active compounds read low
In all, about 5,500 compounds went through this assay and about 2,000 (36%) were called active. About 18% were inconclusive and are not listed. This is one part of the list.
RECORDED ENDPOINT: normalized growth
Give the figure by itself; no unit, no explanation.

Query string: Annotate the compound `O=c1cc(-c2ccccc2)oc2cc(O)c(O)c(O)c12` with its measured normalized growth.
Result string: 0.604

Query string: Annotate the compound `O=c1cc(-c2ccccc2)oc2cc(O)c(O)cc12` with its measured normalized growth.
Result string: 0.993

Query string: Annotate the compound NC(=O)c1ncn(C2O[C@H](CO)[C@@H](O)[C@H]2O)c1N (some centres not stated) with its measured normalized growth.
Result string: 1.03

Query string: Annotate the compound `O=C(O)CCC(=O)Nc1ccc(S(=O)(=O)Nc2nccs2)cc1` with its measured normalized growth.
Result string: 0.994

Query string: Annotate the compound `CO[C@]12C[C@@H](COC(=O)c3cncc(Br)c3)CN(C)[C@@H]1Cc1cn(C)c3cccc2c13` with its measured normalized growth.
Result string: 1

Query string: Annotate the compound CC(CCC(=O)O)[C@H]1CCC2C3CC[C@@H]4C[C@H](O)CC[C@]4(C)C3C[C@H](O)[C@@]21C (some centres not stated) with its measured normalized growth.
Result string: 0.997
